Catalogue of compounds with associated growth inhibition
- assay overview: NCI Yeast Anticancer Drug Screen. Data for the mlh1 rad18 strain (AID 175)
- measurement parameters: S. cerevisiae mlh1 rad18 strain growth inhibition; at 50.0 µM; stronger effect = higher value
- Procedure: Growth inhibition of yeast strains with defined genetic alterations is measured as a screen for potential anti-cancer activity. Selected strains with alterations in DNA damage repair or cell cycle control were exposed to compounds and growth inhibition was measured relative to vehicle treated controls. The strain used in this assay is mlh1 rad18
About 79,000 compounds went through this panel and 15% of them were active in at least one assay; those are over-represented in the sample as a whole.

{"compound": "CC([CH2][Hg][Cl])c1ccccc1 (centres undefined)", "unit spec": "%", "growth inhibition": 99.5}
{"compound": "CC1(C)SC2C(NC(=O)Cc3ccccc3)C(=O)N2C1C(=O)O (centres undefined) (tested in a mixture with another compound)", "unit spec": "%", "growth inhibition": -11.7}
{"compound": "COc1cccc(C=C(C#N)C#N)c1", "unit spec": "%", "growth inhibition": 33.4}
{"compound": "O=C(Cc1ccccc1)OCCBr", "unit spec": "%", "growth inhibition": -2.05}
{"compound": "COCCCCCC(=O)CP(=O)(OC)OC", "unit spec": "%", "growth inhibition": 8.95}
{"compound": "COCCOCCOC(=O)CBr", "unit spec": "%", "growth inhibition": 92.2}
{"compound": "O=C1C=CC(=Nc2cc(Cl)c(O)c(Cl)c2)C=C1", "unit spec": "%", "growth inhibition": 42.8}
{"compound": "COc1ccc(/C=C\\[N+](=O)[O-])cc1OCc1ccccc1", "unit spec": "%", "growth inhibition": 8.05}
{"compound": "CC(Cc1ccccc1)NC(=O)/C=C/C(=O)O (centres undefined)", "unit spec": "%", "growth inhibition": 11.9}
{"compound": "O=C(Cc1c[nH]c2ccccc12)N/N=C\\c1ccc(N(CCCl)CCCl)cc1", "unit spec": "%", "growth inhibition": 4.55}
{"compound": "O=C(O)COc1ccc(Cl)cc1Cl (tested in a mixture with another compound)", "unit spec": "%", "growth inhibition": -0.9}
{"compound": "CN(C)P1P(N(C)C)P(N(C)C)P1N(C)C (centres undefined)", "unit spec": "%", "growth inhibition": -1.2}
{"compound": "CC(C)CC[CH2][Pb]([CH2]CCC(C)C)([CH2]CCC(C)C)[O]C(=O)C(Cl)(Cl)Cl", "unit spec": "%", "growth inhibition": 98.7}
{"compound": "CCCCCCC(=O)O[C@H]1CC[C@H]2[C@@H]3CCC4C/C(=N/NC(=O)c5cccc6c(=O)c7ccccc7[nH]c56)C=C(C)[C@]4(C)[C@H]3CC[C@]12C (some centres undefined)", "unit spec": "%", "growth inhibition": -55.3}
{"compound": "OCC1OC(n2cnc3cc(Cl)c(Cl)cc32)C(O)C1O (centres undefined)", "unit spec": "%", "growth inhibition": 5}
{"compound": "CN(Cc1ccccc1)CC(O)c1ccccc1Cl (centres undefined)", "unit spec": "%", "growth inhibition": 25.1}
{"compound": "NNc1cccc2c1CCC(N)C2 (centres undefined)", "unit spec": "%", "growth inhibition": 9.65}
{"compound": "O=P(O)(O)C(O)c1ccccc1 (centres undefined)", "unit spec": "%", "growth inhibition": 17.6}
{"compound": "COCCOC(=O)CCl", "unit spec": "%", "growth inhibition": 25.5}
{"compound": "COC(=O)C1=C(N2CCCC2)C2c3ccccc3SC12C(=O)OC (centres undefined)", "unit spec": "%", "growth inhibition": 9.3}
{"compound": "CC12C(=O)C=CCC1=CCC1C2CCC2(O)C(=O)OC3(C)C4CC5(C)C(COC16OC23C5C6=O)C(=O)O4 (centres undefined)", "unit spec": "%", "growth inhibition": 62.5}
{"compound": "CC1C2Cc3ccc(O)cc3C1(C)CCN2C (centres undefined)", "unit spec": "%", "growth inhibition": 16.1}
{"compound": "COC(C)CCOC(=O)Cc1ccccc1 (centres undefined)", "unit spec": "%", "growth inhibition": 5.25}
{"compound": "N#CC(C#N)=Cc1cccc(C#N)c1", "unit spec": "%", "growth inhibition": 3.45}
